Target: Oxysterols receptor LXR-beta (Homo sapiens, UniProt P55055);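 note: HEK293 cells with Gal4-LXR fusion and GAL4-driven luciferase reporter; potency for activation of Gal4-LXR reporter so compounds are agonists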;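 note: agonist activity at LXR measured by a cell-based luminescence readout across a dose range, run as a counterscreen for daf-12 agonists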
Sequence (P55055 whole entry, the tested form may be a part): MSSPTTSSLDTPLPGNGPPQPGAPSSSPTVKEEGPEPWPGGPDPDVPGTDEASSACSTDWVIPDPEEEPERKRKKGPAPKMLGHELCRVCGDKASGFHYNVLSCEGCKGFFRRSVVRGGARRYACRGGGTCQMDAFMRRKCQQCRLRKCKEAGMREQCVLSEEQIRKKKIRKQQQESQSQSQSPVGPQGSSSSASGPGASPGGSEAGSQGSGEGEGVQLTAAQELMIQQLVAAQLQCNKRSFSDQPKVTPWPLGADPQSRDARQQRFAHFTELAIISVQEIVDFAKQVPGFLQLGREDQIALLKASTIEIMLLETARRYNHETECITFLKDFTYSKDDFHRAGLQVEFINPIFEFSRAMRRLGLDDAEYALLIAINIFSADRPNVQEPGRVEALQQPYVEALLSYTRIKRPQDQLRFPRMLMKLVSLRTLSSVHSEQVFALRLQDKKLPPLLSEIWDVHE
Type: functional, cell-based
The source made the active and inactive calls.
Recorded EC50 by entry

compound | EC50
Cc1nn(-c2nnc(NC3CCCCC3)nn2)c(C)c1Br | > 67.6 µM (inactive)
Fc1ccccc1CSc1ncnc2c1ncn2C1CCCCO1 (centres undefined) | > 67.6 µM (inactive)
Oc1[nH]c2ccccc2c1N=Nc1ccccc1F | > 67.6 µM (inactive)
Cc1ccc(C(=N)NOC(=O)c2ccco2)cc1 | > 67.5 µM (inactive)

----------
Recorded IC50 by entry
Molecular target: Induced myeloid leukemia cell differentiation protein Mcl-1 (Homo sapiens, UniProt Q07820)
Sequence (Q07820 whole entry): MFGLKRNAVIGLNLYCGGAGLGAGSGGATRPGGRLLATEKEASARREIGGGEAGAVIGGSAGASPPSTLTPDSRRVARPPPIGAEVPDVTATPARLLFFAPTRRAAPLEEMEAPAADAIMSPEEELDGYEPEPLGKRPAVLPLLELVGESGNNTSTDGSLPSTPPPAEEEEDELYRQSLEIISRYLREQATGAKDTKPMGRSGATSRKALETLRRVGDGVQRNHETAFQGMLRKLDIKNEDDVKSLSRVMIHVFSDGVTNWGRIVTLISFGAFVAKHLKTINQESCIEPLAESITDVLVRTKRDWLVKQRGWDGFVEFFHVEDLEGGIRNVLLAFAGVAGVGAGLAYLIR
Format: functional
Activity calls are given as the source filed them.

structure-as-smiles | experimental-system | IC50
COc1ccc(C(c2c(O)cc(C)oc2=O)c2c(O)cc(C)oc2=O)cc1 | Induced myeloid leukemia cell differentiation protein Mcl-1 (Homo sapiens, UniProt Q07820) | 1.45 µM (not active)
N=C1/C(=C/c2ccc(-c3cccc(C(=O)O)c3)o2)C(=O)N=C2SC=C(c3ccccc3)N12 | Induced myeloid leukemia cell differentiation protein Mcl-1 (Homo sapiens, UniProt Q07820) | > 54 µM (active)
CCN(CC)S(=O)(=O)c1cccc(C(=O)N/N=C/c2ccc(O)c(O)c2O)c1 | Induced myeloid leukemia cell differentiation protein Mcl-1 (Homo sapiens, UniProt Q07820) | 7.33 µM (active)

----------
Target: Kappa-type opioid receptor (Homo sapiens, UniProt P41145)
Sequence (P41145 whole entry): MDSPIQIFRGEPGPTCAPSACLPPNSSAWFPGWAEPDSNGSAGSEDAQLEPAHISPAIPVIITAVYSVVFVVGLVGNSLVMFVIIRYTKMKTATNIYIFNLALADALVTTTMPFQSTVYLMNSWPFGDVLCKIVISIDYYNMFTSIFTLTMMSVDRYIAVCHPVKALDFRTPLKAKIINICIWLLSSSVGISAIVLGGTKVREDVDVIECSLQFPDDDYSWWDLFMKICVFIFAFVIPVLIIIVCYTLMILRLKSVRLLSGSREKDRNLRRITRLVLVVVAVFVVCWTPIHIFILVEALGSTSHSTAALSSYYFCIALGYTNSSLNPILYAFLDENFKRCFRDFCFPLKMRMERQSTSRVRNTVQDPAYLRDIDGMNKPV
Format: functional
pIC50: −log10 of the molar value.
property-name: pIC50

structure-as-smiles | property-name | assay-result
Oc1ccc(CN2CCc3ccccc3C2)c2cccnc12 | pIC50 | < 4.49

----------
Experiment: Luminescence Cell-Based Dose Retest to Confirm Inhibitors of Cancer Stem Cells. [Related pubchem assays (depositor defined):AID2717, AID2721]
Type: functional
Conditions: Homo sapiens
Activity calls are given as the source filed them.
property-name: AC50

compound | property-name | assay-result
COc1ccc(NC(=O)c2c(N)no[n+]2[O-])cc1 | AC50 | 0.754 µM (active)
NC(=O)CC(NC(=O)c1ccc(Br)cc1)c1ccc(N2CCCCCCC2)c([N+](=O)[O-])c1 (stereo unspecified) | AC50 | 8.2 µM (active)
CCC(CO)Oc1cc(NCc2ccc(Cl)cc2Cl)c2ncn(C(C)C)c2c1 (stereo unspecified) | AC50 | 8.14 µM (active)
O=C(CN1CCN(c2ccc(O)cc2)CC1)Nc1ccc(SC(F)F)cc1 | AC50 | 6.49 µM (active)
Clc1ccc(Cl)c(OCCCCN2CCNCC2)c1 | AC50 | 2.41 µM (active)
CCCCCCOc1ccc(OC(=O)c2cccnc2)cc1 | AC50 | 3.33 µM (active)

----------
Recorded EC50 by entry
Target: UniProtKB G5EF15
Sequence (G5EF15 whole entry, the tested form may be a part): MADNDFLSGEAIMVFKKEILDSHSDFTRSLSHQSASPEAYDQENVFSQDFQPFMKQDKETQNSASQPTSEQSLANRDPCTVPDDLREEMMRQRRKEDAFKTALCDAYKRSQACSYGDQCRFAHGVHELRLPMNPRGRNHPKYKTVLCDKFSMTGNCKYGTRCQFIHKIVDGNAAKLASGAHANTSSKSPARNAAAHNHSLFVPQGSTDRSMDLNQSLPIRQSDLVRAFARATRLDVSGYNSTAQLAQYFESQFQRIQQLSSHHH
Assay: disruptors of C. elegans POS-1 RNA interaction – biochemical, fluorescence polarization, dose response (AID 1964);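 note: purified POS-1 fused to maltose binding protein made in E. coli; potency of compounds blocking POS-1 binding to fluorescent RNA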
The source made the active and inactive calls.

compound | EC50
Cc1cc([N+](=O)[O-])ccc1-c1ccc(/C=N/NC(=O)c2ccc(Br)o2)o1 | 19.7 µM (active)
O=C(O)c1ccccc1N/N=C/c1c(Sc2nnnn2-c2ccccc2)nc2ccccn2c1=O | > 300 µM (not active)
CN1C(=O)C(=Cc2ccc(SC3CCCCC3)o2)C(=O)N(C)C1=O | > 300 µM (not active)
Cc1ccc(N=C(S)c2ccc3ccccc3n2)c(C)c1 | > 300 µM (not active)
COc1cccc(C2C(C#N)=C(N)OC3=C2C(=O)CCC3)c1OC(=O)c1ccco1 (centres undefined) | > 300 µM (not active)
Nc1ccc2[nH]c(CCCO)nc2c1 | 36.7 µM (active)
COc1ccc(CCNC(=O)c2nn(C)c3c2CS(=O)(=O)c2ccccc2-3)cc1OC | > 300 µM (not active)
N=c1c(C(=O)NCC2CCCO2)cc2c(=O)n3ccccc3nc2n1Cc1cccnc1 (centres undefined) | 17.1 µM (active)
O=C(/C=C/c1ccc([N+](=O)[O-])s1)N1CCCC1 | > 300 µM (not active)
